Every entry's value here was drawn from PubChem BioAssay.

Biological target: Short transient receptor potential channel 4 (Mus musculus)
Experiment: blockers of DAMGO-evoked TRPC4 calcium flux – cell-based, Fluo4, HEK293 TRPC4beta/mu-opioid, confirmation (AID 2636)
Settings: at 10 µM
Activity calls are given as the source filed them.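 The calls were made as follows: active = calcium signal cut by more than 3 SD below the full-agonist control yet still positive, in both repeats and the earlier primary screen; inactive = the rest.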
Permitted responses: active, inactive

Reference set, count: 3
compound	measurement_target	class_label
Cc1ccc(-n2cc(CNC(C)c3cnn(C)c3C)c(-c3ccc(F)cc3)n2)cc1 (centres undefined)	Short transient receptor potential channel 4 (Mus musculus)	inactive
CN(C)c1ccc(NC(=O)CN2C3CCCC2CC(NC(=O)c2ccccc2)C3)cc1 (centres undefined)	Short transient receptor potential channel 4 (Mus musculus)	active
COc1ccc(Cl)cc1C(=O)Nc1ccccc1N1CCN(C)CC1	Short transient receptor potential channel 4 (Mus musculus)	inactive

### Prompt Query: recorded result category for CC(C)Cc1ccc(CN2CCCC(NC(=O)CCn3cnnn3)C2)cc1 (centres undefined) in this test
### Response inactive

====

Target: Short transient receptor potential channel 4 (Mus musculus)
Assay: blockers of DAMGO-evoked TRPC4 calcium flux – cell-based, Fluo4, HEK293 TRPC4beta/mu-opioid, confirmation (AID 2636)
Conditions: at 10 µM
Active and inactive are the calls of the source.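 Rule for the calls: active = calcium signal cut by more than 3 SD below the full-agonist control yet still positive, in both repeats and the earlier primary screen; inactive = the rest.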
Permitted responses: 1 (yes) = active, 0 (no) = inactive

Reference set, count: 5
compound	class_label
COc1ccc(N/C(C)=C2/C(=O)C(=O)N(CCO)C2c2ccc([N+](=O)[O-])cc2)cc1 (stereo not drawn)	0 (no)
CN(C)S(=O)(=O)N1CCC(CCCC2CCN(S(=O)(=O)N(C)C)CC2)CC1	0 (no)
c1ccc2c(c1)nnn2-c1ncnc2sc3c(c12)CCCC3	1 (yes)
CCN1CCN(c2ccc(S(=O)(=O)N3CCCCC3)cc2NC(=O)c2cccc(Cl)c2)CC1	0 (no)
CC(=O)NC(CC(=O)NCC(c1ccco1)N(C)C)c1ccccc1 (stereo not drawn)	0 (no)

### Prompt Query: recorded result category for CCOC(=O)C1NN=C(C(=O)c2ccccc2)C1c1ccc(Cl)cc1 (stereo not drawn) in this test
### Response 0 (no)

====

Molecular target: Short transient receptor potential channel 4 (Mus musculus)
Experiment: blockers of DAMGO-evoked TRPC4 calcium flux – cell-based, Fluo4, HEK293 TRPC4beta/mu-opioid, confirmation (AID 2636)
Settings: at 10 µM
The source made the active and inactive calls.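 Rule for the calls: active = calcium signal cut by more than 3 SD below the full-agonist control yet still positive, in both repeats and the earlier primary screen; inactive = the rest.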
Permitted responses: active, inactive

molecule	class_label
CNC[C@H](Cc1ccccc1)NC[C@@H](Cc1cccc2ccccc12)NCCc1ccc(C)cc1	inactive
Cc1ccc(C(=O)O)cc1N=Cc1cc(Br)cc(Br)c1O	inactive
Fc1ccc(CN2C3=NCCCN3c3ccccc32)cc1	inactive

Continue with the next molecule.
### Prompt Query: recorded result category for COc1ccc(NS(=O)(=O)c2csc(C(N)=O)c2)cc1OC in this test
### Response inactive

====

Target: Short transient receptor potential channel 4 (Mus musculus)
Assay: calcium flux activators in TRPC4/5HT1a cells, counter-screen for TRPC4 activator project, cell-based, second counter screen, HEK293 TRPC4/5HT1a, Fluo-4 (AID 434977)
Conditions: Fluo-4 calcium flux, at 10 µM
Active and inactive are the calls of the source.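 How the source made its calls: active means calcium signal rise above buffer-control mean plus 5 SD in both duplicates, and also a hit in the primary screen; inactive means the rest.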
Permitted responses: yes (active), no (inactive)

compound	class_label
CC1CCc2c(sc3ncnc(SCC(=O)Nc4ccc(C(=O)O)cc4)c23)C1 (centres undefined)	no

### Prompt Query: recorded result category for CN(C)C(CNC(=O)c1ccccc1OCc1ccc(Cl)cc1)c1ccco1 (centres undefined) in this test
### Response no

### Prompt Query: recorded result category for Cc1ccc(C(C(=O)NC(C)(C)C)N(C(=O)CCC(=O)Nc2ccccn2)c2ccccc2F)cc1 (centres undefined) in this test
### Response no

### Prompt Query: recorded result category for Oc1ccc(-c2csc(-c3ccccc3)n2)cc1O in this test
### Response no

### Prompt Query: recorded result category for CCCN(c1nc(C)cc(OC)n1)S(=O)(=O)c1ccccc1 in this test
### Response no

### Prompt Query: recorded result category for CCN(CC)CCNc1ccc(Cl)cc1[N+](=O)[O-] in this test
### Response no

### Prompt Query: recorded result category for c1ccc2[nH]c(CCCCc3nc4ccccc4[nH]3)nc2c1 in this test
### Response no

### Prompt Query: recorded result category for Clc1cc(/C=N\NC2=NCCN2)cc(Cl)n1 in this test
### Response no

### Prompt Query: recorded result category for Cn1c(=O)c2c(nc(SCCN3CCCCC3)n2Cc2ccccc2)n(C)c1=O in this test
### Response no

### Prompt Query: recorded result category for O=C(COc1ccccc1-c1ccccc1)NCc1ccco1 in this test
### Response no

### Prompt Query: recorded result category for Cc1ccc(NC(=O)CCN2CCC(Cc3ccccc3)CC2)cc1 in this test
### Response yes

### Prompt Query: recorded result category for O=[N+]([O-])c1ccc(C[n+]2cccc(O)c2)cc1 in this test
### Response no

### Prompt Query: recorded result category for Cc1cc(Br)ccc1OCCN1CCCC1 in this test
### Response no

### Prompt Query: recorded result category for Cc1ccc(Cl)cc1N1CCN(Cc2nc3c(c(=O)[nH]c(=O)n3C)n2Cc2ccccc2F)CC1 in this test
### Response no

====

Tested on: TRPC4 beta (transient receptor potential cation channel C4), mouse
Test: potentiation of DAMGO EC20 TRPC4 response – cell-based, Fluo-4, HEK293 TRPC4beta/mu-opioid, confirmation (AID 2555)
Conditions: DAMGO EC20, Fluo-4 calcium flux, at 10 µM; stronger effect = higher value
Activity calls are given as the source filed them.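 Rule for the calls: active = primary screen hit whose calcium fluorescence ratio, in both repeats, exceeds the weak agonist control mean by 3 SD; inactive = the rest.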
observable: potentiation

Field: example entries. Status: answers known.
compound	potentiation
Cc1cccc(/C=N/NC(=O)c2cc(Br)ccc2O)n1	46% (active)
COc1ccccc1N1CCc2c(C)nc3c(OC)cccc3c21	inactive
Cn1c(N2CCN(C(=O)Nc3ccc(F)cc3)CC2)nc2ccccc21	inactive
COc1cc2c(cc1OC)C(C)N(C(=O)C(NC(=O)c1ccccc1)C(C)C)CC2 (configuration not stated)	inactive
N=c1sccn1CC(=O)Nc1ccccc1Oc1ccccc1	inactive
CCCc1cc(=O)[nH]c(SCC(=O)Nc2sc3c(c2C#N)CCCC3)n1	inactive
O=S(=O)(NCCSc1nnc(-c2ccco2)n1-c1ccccc1)c1ccccc1	inactive
CCCCCn1c2c(c(=N)c3ccccc31)CCC2	inactive
CC(C)OC(=O)C1CC=CCC1C(=O)Nc1ccc(Cl)cc1 (configuration not stated)	inactive
O=C(COC(=O)c1nc(Cl)ccc1Cl)c1ccccc1Cl	inactive

Entry under test: COc1ccccc1OCC(=O)Nc1ccc(Cl)cc1 . Its potentiation was inactive

Entry under test: CN(C)CCCCOc1cccc(Br)c1 . Its potentiation was inactive

Entry under test: O=C(CC1C(=O)NCCN1Cc1ccc(-c2ccccc2)cc1)NCCc1ccccn1 (configuration not stated) . Its potentiation was inactive

====

Test system: TRPC4 beta (transient receptor potential cation channel C4), mouse
Test: TRPC4 cation channel opening, retest – cell-based, Fluo4 calcium, HEK293 TRPC4beta/mu-opioid, duplicates, 10 µM, confirmation (AID 2426)
Settings: Fluo4 calcium fluorescence, at 10 µM
Active and inactive are the calls of the source.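 How the source made its calls: active means fluorescence ratio normalized to control raised more than 50% in primary screen plus both repeat runs; inactive means the rest.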
Permitted responses: True = active, False = inactive

Reference set, count: 10
compound	class_label
COc1ccc([N+](=O)[O-])cc1NCc1ccco1	False
CN1/C(=C\C(=O)C[n+]2ccc3ccccc3c2)C(C)(C)c2ccccc21	False
Cc1cc(C)c2c(=O)n(CC(=O)NCCCN3CCN(c4ccccc4F)CC3)sc2n1	False
Oc1ccc(-c2[nH]ncc2-c2ccc(Br)cc2)c(O)c1	False
CCCCCN1C2=NCCN2c2ccccc21	False
C=CCNC(=S)N1CCN(C2CCCCC2)CC1	False
Cc1ccn(CC(=O)NC2CCCN(Cc3ccc(CC(C)C)cc3)C2)n1 (configuration not stated)	True
Cc1ccc(CN(C(=O)c2cc(=O)c3cc(Cl)c(C)cc3o2)C2CCS(=O)(=O)C2)cc1 (configuration not stated)	False
CC(=O)c1nn(-c2cccc(Br)c2)cc1C(=O)c1cccc2ccccc12	False
O=C(NCc1ccccc1)C1=C[C@H](c2ccc(Br)cc2)C[C@H](OCc2ccc(CO)cc2)O1	False

### Prompt Query: recorded result category for C=CCOc1ccc(Br)cc1CNC(C)(C)CO in this test
### Response False

### Prompt Query: recorded result category for O=C(Cc1cccs1)Nc1nc(-c2ccc(F)cc2F)cs1 in this test
### Response False

### Prompt Query: recorded result category for Cn1c(=O)c2c(nc(SCCN3CCCCC3)n2Cc2ccccc2)n(C)c1=O in this test
### Response False

====

Assay: serotonin-gated TRPC4 signal block – cell-based, second counter screen, HEK293 TRPC4/5HT1a, Fluo-4, counter-screen for TRPC4 inhibitor project, confirmation (AID 434978)
Details: Fluo-4 calcium flux, at 10 µM, serotonin added to trigger calcium flux
Activity calls are given as the source filed them.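 The calls were made as follows: active = primary screen active whose calcium signal fell more than 3 SD beyond the full-serotonin control mean in both duplicate plates; inactive = the rest.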
Permitted responses: 1 (yes) (active), 0 (no) (inactive)

compound	class_label
CCn1c(NCc2ccco2)nc2ccccc21	0 (no)
O=C(COC(=O)c1nc(Cl)ccc1Cl)c1ccccc1Cl	0 (no)

### Prompt Query: recorded result category for Oc1c(Br)cc(Br)cc1C=Nc1ccc2[nH]ncc2c1 in this test
### Response 1 (yes)

### Prompt Query: recorded result category for CC(C)Cc1nc(Cl)c(C#N)c2c1CCCC2 in this test
### Response 0 (no)

### Prompt Query: recorded result category for O=c1c2ccccc2nc(COc2ccccc2)n1/N=C/c1cc([N+](=O)[O-])ccc1O in this test
### Response 0 (no)

### Prompt Query: recorded result category for O=C(c1cccc(C(F)(F)F)c1)C1CCCN(Cc2cccn2-c2ccccn2)C1 (stereo unspecified) in this test
### Response 1 (yes)
